Tested on: 521955-158-R2-J5-PDC complex spheroid growth, % test/control
method.notes: Anticancer human tumor 521955-158-R2-J5-PDC patient-derived pancreatic carcinoma cell line growth inhibition [Asc]
experimental.conditions: second compound 0.01 µM; first compound 0.01 µM; active compounds read low
value.type: viability, T/C

Req: For Cn1ncnc1[C@H]1c2n[nH]c(=O)c3cc(F)cc(c23)N[C@@H]1c1ccc(F)cc1 + CNC(C)C(=O)NC1CN(S(=O)(=O)c2cccc(S(=O)(=O)N3CCC4CCC(C(=O)NC(c5ccccc5)c5ccccc5)N4C(=O)C(NC(=O)C(C)NC)C3)c2)CCC2CCC(C(=O)NC(c3ccccc3)c3ccccc3)N2C1=O , what is its reported viability, T/C?
Resp: 65.6%

Req: Same question, O=C(c1ccc(F)c(F)c1Nc1ccc(I)cc1F)N1CC(O)([C@@H]2CCCCN2)C1 + CNC(C)C(=O)NC1CN(S(=O)(=O)c2cccc(S(=O)(=O)N3CCC4CCC(C(=O)NC(c5ccccc5)c5ccccc5)N4C(=O)C(NC(=O)C(C)NC)C3)c2)CCC2CCC(C(=O)NC(c3ccccc3)c3ccccc3)N2C1=O this time
Resp: 57.2%

Req: Same question, COc1c(OCCCN2CCOCC2)ccc2c3n(c(=NC(=O)c4cnc(N)nc4)nc12)CCN3 + CNC(C)C(=O)NC1CN(S(=O)(=O)c2cccc(S(=O)(=O)N3CCC4CCC(C(=O)NC(c5ccccc5)c5ccccc5)N4C(=O)C(NC(=O)C(C)NC)C3)c2)CCC2CCC(C(=O)NC(c3ccccc3)c3ccccc3)N2C1=O this time
Resp: 42.8%

###

System: 521955-158-R2-J5-PDC complex spheroid growth, % test/control
method.notes: Anticancer human tumor 521955-158-R2-J5-PDC cell line growth inhibition [Asc];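 note: spheroids exposed to agents for 7 days before readout; 100% = DMSO vehicle control viability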
experimental.conditions: second compound 3.16 µM; first compound 0.0316 µM; active compounds read low
Exercise: state measured viability, T/C for each of the compounds provided.
State just the number; it will be interpreted in %.

Req: Request body: readout viability, T/C, system 521955-158-R2-J5-PDC complex spheroid growth, % test/control, query O=C(c1ccc(F)c(F)c1Nc1ccc(I)cc1F)N1CC(O)([C@@H]2CCCCN2)C1 + Cc1c(S(C)(=O)=O)c(-c2cc(F)cc(N3CCN(c4ccc(NS(=O)(=O)c5ccc(NC(CCN6CCC(C(=O)OCCCP(=O)(O)O)CC6)CSc6ccccc6)c(S(=O)(=O)C(F)(F)F)c5)cc4)CC3)c2)c(-c2ccc(Cl)cc2)n1C(C)C . Return the value.
Resp: 50.8

Req: Same question, Cn1ncnc1[C@H]1c2n[nH]c(=O)c3cc(F)cc(c23)N[C@@H]1c1ccc(F)cc1 + Cc1c(S(C)(=O)=O)c(-c2cc(F)cc(N3CCN(c4ccc(NS(=O)(=O)c5ccc(NC(CCN6CCC(C(=O)OCCCP(=O)(O)O)CC6)CSc6ccccc6)c(S(=O)(=O)C(F)(F)F)c5)cc4)CC3)c2)c(-c2ccc(Cl)cc2)n1C(C)C this time
Resp: 39.8

Req: Same question, COc1c(OCCCN2CCOCC2)ccc2c3n(c(=NC(=O)c4cnc(N)nc4)nc12)CCN3 + Cc1c(S(C)(=O)=O)c(-c2cc(F)cc(N3CCN(c4ccc(NS(=O)(=O)c5ccc(NC(CCN6CCC(C(=O)OCCCP(=O)(O)O)CC6)CSc6ccccc6)c(S(=O)(=O)C(F)(F)F)c5)cc4)CC3)c2)c(-c2ccc(Cl)cc2)n1C(C)C this time
Resp: 39.9

Req: Same question, C=C(F)C(=O)N1CCN(c2nc(OCC3CCCN3C)nc3c2CCN(c2cccc4cccc(Cl)c24)C3)CC1CC#N (centres undefined) + Cc1c(S(C)(=O)=O)c(-c2cc(F)cc(N3CCN(c4ccc(NS(=O)(=O)c5ccc(NC(CCN6CCC(C(=O)OCCCP(=O)(O)O)CC6)CSc6ccccc6)c(S(=O)(=O)C(F)(F)F)c5)cc4)CC3)c2)c(-c2ccc(Cl)cc2)n1C(C)C this time
Resp: 62.4

###

System: 521955-158-R2-J5-PDC complex spheroid growth, % test/control
method.notes: Anticancer human tumor 521955-158-R2-J5-PDC cell line growth inhibition [Asc];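 note: spheroids exposed to agents for 7 days before readout; 100% = DMSO vehicle control viability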
experimental.conditions: second compound 0.0316 µM; first compound 0.316 µM; active compounds read low
value.type: viability, T/C

Req: For COc1c(OCCCN2CCOCC2)ccc2c3n(c(=NC(=O)c4cnc(N)nc4)nc12)CCN3 + CNC(C)C(=O)NC1CN(S(=O)(=O)c2cccc(S(=O)(=O)N3CCC4CCC(C(=O)NC(c5ccccc5)c5ccccc5)N4C(=O)C(NC(=O)C(C)NC)C3)c2)CCC2CCC(C(=O)NC(c3ccccc3)c3ccccc3)N2C1=O , what is its reported viability, T/C?
Resp: 18%

Req: Same question, C=CC(=O)N1CCN(c2nc(=O)n(-c3c(C)ccnc3C(C)C)c3nc(-c4c(O)cccc4F)c(F)cc23)C(C)C1 (centres undefined) + CNC(C)C(=O)NC1CN(S(=O)(=O)c2cccc(S(=O)(=O)N3CCC4CCC(C(=O)NC(c5ccccc5)c5ccccc5)N4C(=O)C(NC(=O)C(C)NC)C3)c2)CCC2CCC(C(=O)NC(c3ccccc3)c3ccccc3)N2C1=O this time
Resp: 103%

Req: Same question, CCN1CCN(Cc2ccc(Nc3ncc(F)c(-c4cc(F)c5nc(C)n(C(C)C)c5c4)n3)nc2)CC1 + CNC(C)C(=O)NC1CN(S(=O)(=O)c2cccc(S(=O)(=O)N3CCC4CCC(C(=O)NC(c5ccccc5)c5ccccc5)N4C(=O)C(NC(=O)C(C)NC)C3)c2)CCC2CCC(C(=O)NC(c3ccccc3)c3ccccc3)N2C1=O this time
Resp: 83.6%

Req: Same question, C=C(F)C(=O)N1CCN(c2nc(OCC3CCCN3C)nc3c2CCN(c2cccc4cccc(Cl)c24)C3)CC1CC#N (centres undefined) + CNC(C)C(=O)NC1CN(S(=O)(=O)c2cccc(S(=O)(=O)N3CCC4CCC(C(=O)NC(c5ccccc5)c5ccccc5)N4C(=O)C(NC(=O)C(C)NC)C3)c2)CCC2CCC(C(=O)NC(c3ccccc3)c3ccccc3)N2C1=O this time
Resp: 81.3%

###

System: 521955-158-R2-J5-PDC complex spheroid growth, % test/control
method.notes: Anticancer human tumor 521955-158-R2-J5-PDC cell line growth inhibition [Asc];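 note: spheroids exposed to agents for 7 days before readout; 100% = DMSO vehicle control viability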
experimental.conditions: second compound 0.316 µM; first compound 0.316 µM; active compounds read low
value.type: viability, T/C (%)
State just the number; it will be interpreted in %.

Req: For CCN1CCN(Cc2ccc(Nc3ncc(F)c(-c4cc(F)c5nc(C)n(C(C)C)c5c4)n3)nc2)CC1 + CNC(C)C(=O)NC1CN(S(=O)(=O)c2cccc(S(=O)(=O)N3CCC4CCC(C(=O)NC(c5ccccc5)c5ccccc5)N4C(=O)C(NC(=O)C(C)NC)C3)c2)CCC2CCC(C(=O)NC(c3ccccc3)c3ccccc3)N2C1=O , what is its reported viability, T/C?
Resp: 69.7

Req: Same question, CNC(C)C(=O)NC1CN(S(=O)(=O)c2cccc(S(=O)(=O)N3CCC4CCC(C(=O)NC(c5ccccc5)c5ccccc5)N4C(=O)C(NC(=O)C(C)NC)C3)c2)CCC2CCC(C(=O)NC(c3ccccc3)c3ccccc3)N2C1=O (stereo not drawn) + Cc1c(S(C)(=O)=O)c(-c2cc(F)cc(N3CCN(c4ccc(NS(=O)(=O)c5ccc(NC(CCN6CCC(C(=O)OCCCP(=O)(O)O)CC6)CSc6ccccc6)c(S(=O)(=O)C(F)(F)F)c5)cc4)CC3)c2)c(-c2ccc(Cl)cc2)n1C(C)C this time
Resp: 91.1

Req: Same question, O=C(c1cc(Cc2n[nH]c(=O)c3ccccc23)ccc1F)N1CCN(C(=O)C2CC2)CC1 + CNC(C)C(=O)NC1CN(S(=O)(=O)c2cccc(S(=O)(=O)N3CCC4CCC(C(=O)NC(c5ccccc5)c5ccccc5)N4C(=O)C(NC(=O)C(C)NC)C3)c2)CCC2CCC(C(=O)NC(c3ccccc3)c3ccccc3)N2C1=O this time
Resp: 82.1

###

Test system: 521955-158-R2-J5-PDC complex spheroid growth, % test/control
method.notes: Anticancer human tumor 521955-158-R2-J5-PDC cell line growth inhibition [Asc];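 note: spheroids exposed to agents for 7 days before readout; 100% = DMSO vehicle control viability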
experimental.conditions: second compound 3.16 µM; first compound 0.0316 µM; active compounds read low
value.type: viability, T/C

Req: For CNC(C)C(=O)NC1CN(S(=O)(=O)c2cccc(S(=O)(=O)N3CCC4CCC(C(=O)NC(c5ccccc5)c5ccccc5)N4C(=O)C(NC(=O)C(C)NC)C3)c2)CCC2CCC(C(=O)NC(c3ccccc3)c3ccccc3)N2C1=O (stereo not drawn) + Cc1c(S(C)(=O)=O)c(-c2cc(F)cc(N3CCN(c4ccc(NS(=O)(=O)c5ccc(NC(CCN6CCC(C(=O)OCCCP(=O)(O)O)CC6)CSc6ccccc6)c(S(=O)(=O)C(F)(F)F)c5)cc4)CC3)c2)c(-c2ccc(Cl)cc2)n1C(C)C , what is its reported viability, T/C?
Resp: 47.5%

Req: Same question, O=C(c1cc(Cc2n[nH]c(=O)c3ccccc23)ccc1F)N1CCN(C(=O)C2CC2)CC1 + Cc1c(S(C)(=O)=O)c(-c2cc(F)cc(N3CCN(c4ccc(NS(=O)(=O)c5ccc(NC(CCN6CCC(C(=O)OCCCP(=O)(O)O)CC6)CSc6ccccc6)c(S(=O)(=O)C(F)(F)F)c5)cc4)CC3)c2)c(-c2ccc(Cl)cc2)n1C(C)C this time
Resp: 71.5%

Req: Same question, CCN1CCN(Cc2ccc(Nc3ncc(F)c(-c4cc(F)c5nc(C)n(C(C)C)c5c4)n3)nc2)CC1 + Cc1c(S(C)(=O)=O)c(-c2cc(F)cc(N3CCN(c4ccc(NS(=O)(=O)c5ccc(NC(CCN6CCC(C(=O)OCCCP(=O)(O)O)CC6)CSc6ccccc6)c(S(=O)(=O)C(F)(F)F)c5)cc4)CC3)c2)c(-c2ccc(Cl)cc2)n1C(C)C this time
Resp: 43.8%
